// Acetylcholinesterase (Homo sapiens) log10(IC50) records
assay_metric: log10(IC50) (log10 of the value in µM)

| structure_smiles_string | log10(IC50) |
| --- | --- |
| Cc1ccc(C)c(NC(=O)Oc2ccc3c(c2)[C@]2(C)CCN(C)[C@@H]2N3C)c1 | -1.59 |
| CC(C)c1ccccc1NC(=O)Oc1ccc2c(c1)[C@]1(C)CCN(C)[C@@H]1N2C | -1.82 |
| CN(C)Cc1cc2c(cc1OC(=O)Nc1ccccc1)[C@]1(C)CCN(C)[C@@H]1N2C | 0.40 |
| Cc1cc(C)cc(NC(=O)Oc2ccc3c(c2)[C@]2(C)CCN(C)[C@@H]2N3C)c1 | -1.11 |
| Cc1cccc(NC(=O)Oc2ccc3c(c2)[C@]2(C)CCN(C)[C@@H]2N3C)c1C | -1.64 |
| Cc1ccc(NC(=O)Oc2ccc3c(c2)[C@]2(C)CCN(C)[C@@H]2N3C)cc1C | -1.51 |
| Cc1ccc(NC(=O)Oc2ccc3c(c2)[C@]2(C)CCN(C)[C@@H]2N3C)c(C)c1 | -1.85 |
| Cc1cccc(NC(=O)Oc2ccc3c(c2)[C@]2(C)CCN(C)[C@@H]2N3C)c1 | -1.55 |
| CN(C(=O)Oc1ccc2c(c1)[C@]1(C)CCN(C)[C@@H]1N2C)c1ccccc1 | -0.16 |
| Cc1cc2c(cc1OC(=O)Nc1ccccc1)[C@]1(C)CCN(C)[C@@H]1N2C | -0.59 |
| Cc1cccc(C)c1NC(=O)Oc1ccc2c(c1)[C@]1(C)CCN(C)[C@@H]1N2C | -0.11 |
| CCc1ccccc1NC(=O)Oc1ccc2c(c1)[C@]1(C)CCN(C)[C@@H]1N2C | -2.00 |
